Tested on: SHK male mice
Experiment: Recognition of New Objects by Mice Under Scopolamine and MK-801
Assay type: in vivo
Conditions: scopolamine 1 mg/kg and MK-801 0.2 mg/kg
value type: nootropic action (new object recognition, FIG. 13-14)

O=S(=O)(c1ccccc1)c1cnc2c(N3CCNCC3)cccc2c1 [SB-742457] | nootropic action
CC12CC3CC(C)(C1)CC(N)(C3)C2 [memantine] | nootropic action
Cc1ccc2c(c1)c1c(n2CCc2ccc(C)nc2)CCN(C)C1.Cl [1.2.1(5)HCl] | nootropic action
